Measured values drawn from patent US20210179680A1 for this set.

system: mice with bleomycin-induced pulmonary fibrosis; assay: Pulmonary function (Flexivent) in mice with pulmonary fibrosis; format: in vivo, C57BL/6 mice; details: Table 3 groups, 2 mg/kg i.p.; 28th day after model construction
Bridge positions count the residues as written; N and C are the ends. Square brackets hold non-standard residues; d marks the D form. Peptide text beside a SMILES is read from it. S5 = C=CCCC[C@](C)(N)C(=O)O
Assay metric: Dynamic resistance (cmH2O · s/Ml)
Write the answer as a number in cmH2O · s/Ml, unit excluded.

Input line: # input compound: CSCC[C@H](NC(=O)[C@H](CC(C)C)NC(=O)[C@@H](N)Cc1c[nH]cn1)C(=O)N[C@@H](C)C(=O)N[C@@]1(C)CCCC=CCCC[C@@](C)(C(=O)N[C@@H](CCCCN)C(=O)N[C@@H](CCCCN)C(=O)N[C@@H](CC(C)C)C(=O)N[C@@H](CCCCN)C(=O)N[C@@H](CCCCN)C(=O)N[C@@H](CCCNC(=N)N)C(=O)O)NC(=O)[C@H](CS)NC(=O)[C@H]([C@@H](C)O)NC(=O)[C@H](Cc2ccccc2)NC1=O [S5] (H-HLMA[S5]FTC[S5]KKLKKR-OH; staple 5-9; N-terminus and C-terminus assumed) ; wanted: its Dynamic resistance (cmH2O · s/Ml)
Output line: 0.85

Input line: Record: CSCC[C@H](NC(=O)[C@H](CC(C)C)NC(=O)[C@@H](N)Cc1c[nH]cn1)C(=O)N[C@@H](C)C(=O)N[C@@H](CS)C(=O)N[C@@H](Cc1ccccc1)C(=O)N[C@H](C(=O)N[C@@H](CS)C(=O)N[C@@H](C)C(=O)N[C@@]1(C)CCCC=CCCC[C@@](C)(C(=O)N[C@@H](CCCNC(=N)N)C(=O)O)NC(=O)[C@H](CCCCN)NC(=O)[C@H](CC(C)C)NC(=O)[C@H](CCCCN)NC1=O)[C@@H](C)O [S10] (H-HLMACFTCA[S5]KLK[S5]R-OH; staple 10-14; N-terminus and C-terminus assumed)
Output line: 1.367

Input line: Record: CSCC[C@H](NC(=O)[C@H](CC(C)C)NC(=O)[C@@H](N)Cc1c[nH]cn1)C(=O)N[C@@H](C)C(=O)N[C@@H](CS)C(=O)N[C@@H](Cc1ccccc1)C(=O)N[C@@]1(C)CCCC=CCCC[C@@](C)(C(=O)N[C@@H](CC(C)C)C(=O)N[C@@H](CCCCN)C(=O)N[C@@H](CCCCN)C(=O)N[C@@H](CCCNC(=N)N)C(=O)O)NC(=O)[C@H](CCCCN)NC(=O)[C@H](C)NC(=O)[C@H](CS)NC1=O [S7] (H-HLMACF[S5]CAK[S5]LKKR-OH; staple 7-11; N-terminus and C-terminus assumed)
Output line: 0.8833

Input line: Record: CSCC[C@H](NC(=O)[C@H](CC(C)C)NC(=O)[C@@H](N)Cc1c[nH]cn1)C(=O)N[C@@]1(C)CCCC=CCCC[C@@](C)(C(=O)N[C@@H](C)C(=O)N[C@@H](CCCCN)C(=O)N[C@@H](CCCCN)C(=O)N[C@@H](CC(C)C)C(=O)N[C@@H](CCCCN)C(=O)N[C@@H](CCCCN)C(=O)N[C@@H](CCCNC(=N)N)C(=O)O)NC(=O)[C@H]([C@@H](C)O)NC(=O)[C@H](Cc2ccccc2)NC(=O)[C@H](CS)NC1=O [S4] (H-HLM[S5]CFT[S5]AKKLKKR-OH; staple 4-8; N-terminus and C-terminus assumed)
Output line: 1.267
